Reported melting point is given for each of the following molecules.

Here are 10 molecules together with their reported answers.
record_smiles=O=C(Cc1c(-c2ccccc2)c2cc(Cl)c(CO)cc2oc1=O)Nc1ccc(Cl)cc1C(F)(F)F result="220 to 222 °C"
record_smiles=O=C(Cc1c(-c2ccccc2)c2cc(CO)c(Cl)cc2oc1=O)Nc1ccc(Cl)cc1C(F)(F)F result="241 to 243 °C"
record_smiles=CCOc1cccc(OCC)c1NC(=O)Cc1c(-c2ccccc2)c2cc(Cl)c(C)cc2oc1=O result="235 to 236 °C"
record_smiles=CC(=O)OCc1cc2c(-c3ccccc3)c(CC(=O)Nc3c(C(C)C)cccc3C(C)C)c(=O)oc2cc1Cl result="290 to 292 °C"
record_smiles=COc1cc(C)cc(OC)c1NC(=O)Cc1c(-c2ccccc2)c2cc3c(cc2oc1=O)CCC3 result="237 to 239 °C"
record_smiles=COc1cc2c(-c3ccccc3)c(CC(=O)Nc3ccc(Cl)cc3C(F)(F)F)c(=O)oc2cc1Cl result="246 to 247 °C"
record_smiles=CC(C)c1cccc(C(C)C)c1NC(=O)Cc1c(-c2ccccc2)c2cc(Cl)c(Cl)cc2oc1=O result="289 to 290 °C"
record_smiles=O=C(Cc1c(-c2ccccc2)c2cc3c(cc2oc1=O)CCC3)Nc1c(Cl)cncc1Cl result="257 to 259 °C"
record_smiles=CCOC(=O)C=Cc1cccc(-c2c(CC(=O)Nc3ccc(F)cc3C(F)(F)F)c(=O)oc3cc(Cl)c(C)cc23)c1 result="193 to 196 °C"
record_smiles=O=C(Cc1c(-c2ccccc2)c2cc(CN3CCN(c4ncccn4)CC3)c(Cl)cc2oc1=O)Nc1ccc(Cl)cc1C(F)(F)F result="214 to 217 °C"

## Input Specify measured melting point for Cc1cc2c(-c3cccnc3)c(CC(=O)Nc3ccc(Cl)cc3C(F)(F)F)c(=O)oc2cc1Cl .
## Output 212 to 215 °C

## Input Specify measured melting point for COc1cccc(OC)c1NC(=O)Cc1c(-c2ccccc2)c2cc3c(cc2oc1=O)CCC3 .
## Output 213 to 215 °C
